Source: ChEMBL document CHEMBL1143912

# System: Human immunodeficiency virus 1
# method_notes: Antiviral activity against HIV1 3B assessed as inhibition of virus-induced cytopathogenicity in MT4 cells after 4 days by MTT assay
# Assay type: functional, organism-based
# condition_summary: Human immunodeficiency virus 1, 3B, MT4, 96 h
pEC50: −log10 of the molar value.
quantity: pEC50

Please review the entries below; each comes with its answer.
                           smiles_structure  experimental_result
0  O=C1c2sccc2N(Cc2ccc(Cl)cc2)S(=O)(=O)N1Cc1ccccc1               < 5.09
1  O=C1c2sccc2N(Cc2ccc([N+](=O)[O-])cc2)S(=O)(=O)N1Cc1ccccc1               < 3.57
2  O=C1c2sccc2N(Cc2ccc(Br)cc2)S(=O)(=O)N1Cc1ccccc1               < 5.18
3  O=C1c2sccc2N(Cc2ccccc2)S(=O)(=O)N1Cc1ccccc1               < 4.43

Turning now to a further molecule:
Give pEC50 (Human immunodeficiency virus 1) of the following molecule: N#Cc1ccc(CN2c3ccsc3C(=O)N(Cc3ccccc3)S2(=O)=O)cc1
< 5.07

* * *

Reported CC50 at 96 h values for the following compounds.
# method_notes: Cytotoxicity against human MT4 cells after 4 days by MTT assay
# Assay type: cell-based

Please review the entries below; each comes with its answer.
>>> print(df.to_string())
                           smiles_structure      quantity  experimental_result
0  N#Cc1cccc(CN2c3ccsc3C(=O)N(Cc3ccccc3)S2(=O)=O)c1  CC50 at 96 h             > 306 µM
1  N#Cc1ccccc1CN1c2ccsc2C(=O)N(Cc2ccccc2)S1(=O)=O  CC50 at 96 h             > 306 µM

Turning now to a further compound:
Name the reported CC50 at 96 h value associated with the compound O=C1c2sccc2N(Cc2cccc(Cl)c2)S(=O)(=O)N1Cc1ccccc1
> 299 µM
